System: primary rat microglia
recorded conditions: rat
Where a name gives a salt, the structure may show the parent alone.
Quick reference: LPS % cell toxicity of the listed items.
# number then unit; no other words

Below, each entry is followed by its recorded LPS % cell toxicity result.
NC(=O)C(c1ccccc1)(c1ccccc1)[C@@H]1CCN(CCc2ccc3c(c2)CCO3)C1 [Darifenacin Hydrobromide]
0%
CC(O)(CC(=O)O)CC(=O)O [3-Hydroxy-3-Methyl-Glutaric Acid]
0%
CN1CCC[C@H]1c1cccnc1
1%
CC(C)c1nc(CN(C)C(=O)N[C@H](C(=O)N[C@@H](Cc2ccccc2)C[C@H](O)[C@H](Cc2ccccc2)NC(=O)OCc2cncs2)C(C)C)cs1
0%
COc1ccc2cc3[n+](cc2c1OC)CCc1cc2c(cc1-3)OCO2
0%
Cn1cnc([N+](=O)[O-])c1Sc1ncnc2nc[nH]c12
0%

Below: the item to evaluate.
Could you share which LPS % cell toxicity value was measured for CC(C)c1ccc2oc3nc(N)c(C(=O)O)cc3c(=O)c2c1 ?
0%
